Target or system: T1, G protein of RSV strain Long (subtype A) (human respiratory syncytial virus …, UniProt P20895 1-298)
T1 chain: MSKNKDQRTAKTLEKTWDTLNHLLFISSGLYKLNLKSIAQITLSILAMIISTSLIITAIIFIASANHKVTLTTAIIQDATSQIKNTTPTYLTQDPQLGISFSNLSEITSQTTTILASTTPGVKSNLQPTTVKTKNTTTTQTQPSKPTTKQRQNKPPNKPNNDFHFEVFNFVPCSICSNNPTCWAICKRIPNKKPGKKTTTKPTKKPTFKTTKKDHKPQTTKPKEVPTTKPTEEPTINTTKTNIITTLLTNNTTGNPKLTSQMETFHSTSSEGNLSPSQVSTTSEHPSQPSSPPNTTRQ
Test description: cell-based or functional assay
Measurement type: EC50, PRNT with complement, RSV Long

Example entries begin here.
antibody 853 (clone 853) (antibody, human IgG1, kappa, V domains shown) VH: EVQLVQSGAEVKKPGQSLKISCKTSGYIFTNYWIGWVRQRPGKGLEWMGVIFPADSDARYSPSFQGQVTISADKSIGTAYLQWSSLKASDTAIYYCARPKYYFDSSGQFSEMYYFDFWGQGTLVTVSS VL: EIVLTQSPGTLSLSPGERATLSCRASQSVSSNYLAWYQQKPGQAPRLLIYGASSRAAGMPDRFSGSGSGTDFTLTISRLEPEDFAVYYCQQYGNSPLTFGGGTEVEIKR; 1.49 mg/L
antibody 855 (clone 855) (antibody, human IgG1, kappa, V domains shown) VH: QVQLVQSGPEVKKPGASVKVSCKASGYVLTNYAFSWVRQAPGQGLEWLGWISGSNGNTYYAEKFQGRVTMTTDTSTSTAYMELRSLRSDDTAVYFCARDLLRSTYFDYWGQGTLVTVSS VL: DIQMTQSPSSVSASVGDRVTITCRASQAISNWLAWYQQKPGKAPKLLIYAASSLQSGVPSRFSGSGSGTDFTLTISGLQPEDFATYYCQQADTFPFTFGPGTKVDIKR; 6.35 mg/L
antibody 793 (clone 793) (antibody, human IgG1, kappa, V domains shown) VH: QVQLVESGGGLVKPGGSLRLSCAASGFPFGDYYMSWIRQAPGKGLEWVAYINRGGTTIYYADSVKGRFTISRDNAKNSLFLQMNSLRAGDTALYYCARGLILALPTATVELGAFDIWGQGTMVTVSS VL: DIQMTQSPSSLSASVGDRVTITCRASQSITGYLNWYQQKPGKAPKLLIYATSTLQSEVPSRFSGSGSGTDFTLTISSLQPEDFATYYCQQSYNTLTFGGGTKVEIKR; 2.52 mg/L

Next binder, EC50, PRNT with complement, RSV Long to be filled in.
So for antibody 888 (clone 888) (antibody, human IgG1, kappa, V domains shown) VH: QLQLQESGPGLVKPSETLSLTCTASGGSINSSNFYWGWIRQPPGKGLEWIGSIFYSGTTYYNPSLKSRVTISVDTSKNQFSLKLSPVTAADTAVYHCARHGFRYCNNGVCSINLDAFDIWGQGTMVTVSS VL: DIVMTQSPLSLPVTPGAPASISCRSSQSLLRTNGYNYLDWYLQKPGQSPQLLIYLGSIRASGVPDRFSGSGSGTDFTLKISRVEAEDVGVYYCMQSLQTSITFGQGTRLEIKR , the logged EC50, PRNT with complement, RSV Long turned out to be 0.14 mg/L
